// data source = paper PMC10786891

- Target: T1, EsCas13d, nuclease-dead (Eubacterium siraeum, UniProt B0MS50, R295A;H300A;R849A;H854A)
- T1 sequence: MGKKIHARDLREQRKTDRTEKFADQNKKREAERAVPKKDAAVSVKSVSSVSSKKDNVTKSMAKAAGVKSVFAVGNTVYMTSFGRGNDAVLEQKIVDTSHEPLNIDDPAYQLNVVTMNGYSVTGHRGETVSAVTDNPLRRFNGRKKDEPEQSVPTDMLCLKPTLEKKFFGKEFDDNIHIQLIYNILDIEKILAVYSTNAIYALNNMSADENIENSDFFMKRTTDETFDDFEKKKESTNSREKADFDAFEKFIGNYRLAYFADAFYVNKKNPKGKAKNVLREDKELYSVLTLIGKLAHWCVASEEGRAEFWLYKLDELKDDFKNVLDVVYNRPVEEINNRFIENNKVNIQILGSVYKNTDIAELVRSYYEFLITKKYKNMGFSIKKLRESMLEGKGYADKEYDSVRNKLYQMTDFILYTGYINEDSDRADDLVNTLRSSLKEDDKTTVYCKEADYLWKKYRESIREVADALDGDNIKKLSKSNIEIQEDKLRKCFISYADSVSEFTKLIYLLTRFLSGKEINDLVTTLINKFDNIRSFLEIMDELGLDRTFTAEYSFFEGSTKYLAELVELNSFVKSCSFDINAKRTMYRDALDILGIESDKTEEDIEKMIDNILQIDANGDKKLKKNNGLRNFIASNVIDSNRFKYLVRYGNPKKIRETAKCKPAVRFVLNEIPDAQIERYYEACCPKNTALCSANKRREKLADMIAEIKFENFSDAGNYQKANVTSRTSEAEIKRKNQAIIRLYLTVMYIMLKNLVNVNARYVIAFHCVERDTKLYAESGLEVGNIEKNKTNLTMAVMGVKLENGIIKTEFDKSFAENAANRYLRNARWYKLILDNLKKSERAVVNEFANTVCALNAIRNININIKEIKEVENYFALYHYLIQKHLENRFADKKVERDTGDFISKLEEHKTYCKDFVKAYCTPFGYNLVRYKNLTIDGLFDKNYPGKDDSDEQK
- Protocol notes: crRNA (strand 1, pre-loaded); Mg2+; 40 mM Tris-HCl pH 7.5, 150 mM NaCl, 6 mM MgCl2, 1 mM DTT, 0.1% Tween-20, 0.2 mg/ml BSA; 25 C; 10 min per concentration, then washed
- Test parameters: tags: His6-TwinStrep-SUMO cleaved; N-terminal SNAP kept (SNAP-Surface 488); label: 3' end held by stalled T7 RNA polymerase

{"Binder": "target 1 insC 3' of 10,insU 3' of 6 (mixed) RNA 1: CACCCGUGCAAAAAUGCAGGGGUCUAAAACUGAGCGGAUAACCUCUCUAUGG RNA 2: GGGAAUGGAUCCACAUCUACGAAUUCGUACCAUAGAGAGGUUCAUCCUGCUCACCGAGAUCGGAAGAGCACACGU", "Kd": "46 nM"}
{"Binder": "target 1 G12U,A18G (mixed) RNA 1: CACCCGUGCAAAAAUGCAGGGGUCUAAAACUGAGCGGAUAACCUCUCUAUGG RNA 2: GGGAAUGGAUCCACAUCUACGAAUUCGUACCAUGGAGAGUUUAUCCGCUCACCGAGAUCGGAAGAGCACACGU", "Kd": "78 nM"}
{"Binder": "target 1 A9C,U10A (mixed) RNA 1: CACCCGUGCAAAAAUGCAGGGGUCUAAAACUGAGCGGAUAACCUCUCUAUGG RNA 2: GGGAAUGGAUCCACAUCUACGAAUUCGUACCAUAGAGAGGUACUCCGCUCACCGAGAUCGGAAGAGCACACGU", "Kd": "13.9 nM"}
{"Binder": "target 3 insC 3' of 11,insC 3' of 2 (mixed) RNA 1: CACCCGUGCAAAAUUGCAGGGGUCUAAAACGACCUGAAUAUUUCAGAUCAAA RNA 2: GGGAAUGGAUCCACAUCUACGAAUUCGUUUUUGAUCUGAAACUAUUCAGGUCCUGCAGAUCGGAAGAGCACACGU", "Kd": "67 nM"}
